target: T1, CD40 expressed on Ramos [ATCC] cells (UniProt P25942 21-277, limits assumed); experiment: flow cytometry (FACS) on Ramos cells expressing CD40, R-PE anti-human antibody
T1 construct: whole, on cells; Target of all flow cytometry and CD95 assays; endogenous CD40 on the Ramos cell line
T1 sequence (P25942 21-277 limits assumed): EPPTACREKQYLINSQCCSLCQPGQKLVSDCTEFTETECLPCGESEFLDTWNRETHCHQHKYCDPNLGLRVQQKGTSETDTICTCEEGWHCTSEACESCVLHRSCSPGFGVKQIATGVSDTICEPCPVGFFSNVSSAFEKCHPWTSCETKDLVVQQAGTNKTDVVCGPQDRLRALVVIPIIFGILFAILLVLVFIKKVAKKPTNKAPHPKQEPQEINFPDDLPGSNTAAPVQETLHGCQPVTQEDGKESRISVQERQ
Property label: binding result

Could you tell me which binding result is on file for 341-G [2/2/1/1] (antibody, also called IgG[2/2/1/1]; N5KG2211; not shown: human IgG2 heavy chain constant region, CH1 and hinge domains (EU 118-237), from vector N5KG2; human IgG1 heavy chain constant region, CH2 and CH3 domains (EU 238-446), from vector N5KG1) heavy: QVQLQQSGPGLVKPSQTLSLTCAISGDSVSSNSATWNWIRQSPSRDLEWLGRTYYRSKWYRDYVGSVKSRIIINPDTSNNQFSLQLNSVTPEDTAIYYCTRAQWLGGDYPYYYSMDVWGQGTTVTVSS VL: EIVLTQSPATLSLSPGERATLSCRASQSVSSYLAWYQQKPGQAPRLLIYDASNRATGIPARFSGSGSGTDFTLTISSLEPEDFAVYYCQQRSNTFGPGTKVDIK ?
binds

Same read-out for 4D11-G3[M358L] (antibody, V domains shown, One-amino acid variant of 4D11-G3; also called IgG3[M358L]; N5KG3-M358L; not shown: human IgG3 heavy chain constant region, from vector N5KG3) VH: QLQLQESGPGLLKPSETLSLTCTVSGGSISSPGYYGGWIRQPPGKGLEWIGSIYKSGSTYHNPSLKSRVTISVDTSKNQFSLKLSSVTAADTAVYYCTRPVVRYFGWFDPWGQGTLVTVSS VL: AIQLTQSPSSLSASVGDRVTITCRASQGISSALAWYQQKPGKAPKLLIYDASNLESGVPSRFSGSGSGTDFTLTISSLQPEDFATYYCQQFNSYPTFGQGTKVEIK ?
binds
